Sourced from the supplement of paper PMC10567573

Please go through the items and note down their protein stability index.
B1: RSPH3 (parent)
chain: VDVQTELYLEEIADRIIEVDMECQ

Variants of: B1
PROTOCOL_DESCRIPTION: protein stability index of a GFP-peptide fusion (GPS, HEK-293T) (PSI 1-6); higher = more stable;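 note: lentivirally expressed fusions sorted by FACS into six bins by GFP to DsRed ratio, PSI derived from sequencing read proportions per bin multiplied by bin number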
STATED_CONDITIONS: c terminus: a fixed tail appended
One number for each entry.

MUTATION_NAME	protein stability index
L7S	3.06
I12P	4.53
A13S	2.57
L7V	1.45
A13Q	3.05

Give one value of protein stability index per listed variant.
1. Q4D
2. E22Y
3. D2T
4. A13H
5. Q24I
6. E18P

Result ::
1.45
2.82
2.39
2.5
2.32
2.79

Each of the following entries comes with a recorded value; kindly state protein stability index for each.
1. E22R
2. D2M
3. V3M
4. V19Y
5. E11C
6. I12C

Result ::
1: 2.03; 2: 3.88; 3: 2.26; 4: 2.58; 5: 2.83; 6: 3.22

Parameters: items (list). Returns: protein stability index for each item.
1. V3R
2. L9E
3. E10D
4. E6F
5. C23R
6. D20V

Result ::
[3.38, 5.12, 2.54, 1.64, 3.46, 2.51]

Give protein stability index for each of the items listed below.
1. E10K
2. V19L
3. I12S

Result ::
1: 2.48; 2: 1.59; 3: 4.98

Please state, for each entry, its recorded protein stability index.
1. E18V
2. V1T
3. I16D
4. Q4H
5. V1F

Result ::
2.85
3.75
4.54
3.22
1.55

Provide reported protein stability index for each item, in the same order as listed.
1. V3K
2. D20Y
3. Q24G

Result ::
1: 2.7; 2: 4.28; 3: 2.79
